Test system: DasR (Streptomyces lincolnensis NBRC_13054), ORF:7245352e
Sequence: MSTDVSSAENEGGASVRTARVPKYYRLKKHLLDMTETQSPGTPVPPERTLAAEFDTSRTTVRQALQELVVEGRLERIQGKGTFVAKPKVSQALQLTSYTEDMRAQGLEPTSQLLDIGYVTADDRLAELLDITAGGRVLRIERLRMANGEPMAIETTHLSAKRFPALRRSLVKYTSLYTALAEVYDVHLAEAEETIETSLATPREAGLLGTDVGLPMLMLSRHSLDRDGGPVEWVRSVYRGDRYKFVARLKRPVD
assay.comment: EMSA
conditions: EMSA kit, 20 uL, 50 ng/uL Cy5 probe, 6% non-denaturing PAGE; fifth lane with 10 mg/mL salmon sperm DNA; buffer, pH, salt and temperature not given
readout.kind: binding

{"residue.string": "AGCCAGTGGCGATAAGAGGGCCTGGATGAGCTGCCTGTCCACCGCGTCCATGCGATCGAAGCCTTCCGATGAAGAGATCCCGAAGTGATGAGAGGTACTGCCCTGTGCCCTGCTGCTCTGTGCCGTGCTGCCCTGTGCCCTACTGCCCTGTGTCCTCTTATCGCCACTGGCT (double strand) [SLINC_4906 promoter]", "test.target": "DasR (Streptomyces lincolnensis NBRC_13054), ORF:7245352e", "readout.kind": "binding", "val": "no binding"}
{"residue.string": "AGCCAGTGGCGATAAGATATCCTCTTTCCCCGGGAGAGCCGGTCCCCGTGGTTGTCGCGACGGATGCTGTGGGTCTTCGGCGGGGTGTTCGCCCTCGGTACGGCACTCTTCGCGCTGATTTCCCTCCTGCGGTCGGATTTCCGCCTCTCCGTGGTCGAGATCGGTGCGGTGCTCGCGATCGTGGGACTGCTGACCTGGGCCGCTTCACGCTGCCAGGCCCGAGACACACCGTGTGTACCGAAGCGACTGCCTGGGACGCTACGGGCCGGATGGACTTATCGCCACTGGCT (double strand) [lmrA promoter]", "test.target": "DasR (Streptomyces lincolnensis NBRC_13054), ORF:7245352e", "readout.kind": "binding", "val": "no binding"}

---

Test system: DasR (Streptomyces lincolnensis NBRC_13054), ORF:7245352e
Sequence: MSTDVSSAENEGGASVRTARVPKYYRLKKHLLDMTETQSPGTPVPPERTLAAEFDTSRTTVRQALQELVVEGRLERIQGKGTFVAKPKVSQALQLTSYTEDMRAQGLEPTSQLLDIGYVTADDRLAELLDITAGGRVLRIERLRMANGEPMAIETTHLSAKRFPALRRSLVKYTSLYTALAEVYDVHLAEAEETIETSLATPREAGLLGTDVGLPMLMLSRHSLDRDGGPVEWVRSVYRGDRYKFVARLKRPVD
assay.comment: EMSA
conditions: EMSA kit, 20 uL, 50 ng/uL Cy5 probe, 6% non-denaturing PAGE; fifth lane with 10 mg/mL salmon sperm DNA; buffer, pH, salt and temperature not given
readout.kind: binding

{"residue.string": "AGCCAGTGGCGATAAGATGACTCAAAAGACTCTCCTCACCACACGCGCCACGTAACGGTGGGCACGTGGCGCGCATGACGTTCGTGCAGAAGCAGTTGTCGTTGTGGACGCAGGCACCGGTGGCCCGCTTATTCAGTTGTGAAGTCTGGTTGCGCGACGCGGCGCGCGAAGTCTGTTGCTAGAGCTCTTATCGCCACTGGCT (double strand) [SLINC_6156 promoter]", "readout.kind": "binding", "val": "no binding"}
{"residue.string": "AGCCAGTGGCGATAAGGCTGGGCCTGCCGTTCTCAAGGGGCTGCACGGGGTGTGTGGTTTAGACCAATCCAGCCTCCAATCTAACAGAACCTCGCCCGGCCTCCCAGGTCTGCCGGGTGTCCCGGAGATGACCGGAAACCCTCGGCGAGGGCACCCCTCGCCCCGCGGTCCCTACGTCAGCGAACTTATCGCCACTGGCT (double strand) [nagB promoter]", "readout.kind": "binding", "val": "binds"}
{"residue.string": "AGCCAGTGGCGATAAGACGCACGTACGCAACTCCTTTCGGTTTCCCAGGAGTCACTCCCCGGTCCGGACGGGACATGAACTAATTCAGCTACTTATCGGTCAATCTTGAGCGCGTAGTGCCTTCATGTGGTCGGCAATGCCAGGTTCATGACATTCTCGAATGCTCGGCAATCACAGGCCCTACCGGCGGGGAGGACGCTGGTGGAGTTCGAGATCTTATCGCCACTGGCT (double strand) [SLINC_4481 promoter]", "readout.kind": "binding", "val": "no binding"}

---

Test system: DasR (Streptomyces lincolnensis NBRC_13054), ORF:7245352e
Sequence: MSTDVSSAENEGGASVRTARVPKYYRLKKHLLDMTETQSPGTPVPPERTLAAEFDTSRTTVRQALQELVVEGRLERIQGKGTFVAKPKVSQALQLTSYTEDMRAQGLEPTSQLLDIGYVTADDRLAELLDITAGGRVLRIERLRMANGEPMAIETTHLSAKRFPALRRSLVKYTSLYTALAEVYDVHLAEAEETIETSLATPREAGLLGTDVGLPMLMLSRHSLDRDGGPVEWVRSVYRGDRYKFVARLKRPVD
assay.comment: EMSA
conditions: EMSA kit, 20 uL, 50 ng/uL Cy5 probe, 6% non-denaturing PAGE; fifth lane with 10 mg/mL salmon sperm DNA; buffer, pH, salt and temperature not given
readout.kind: binding

{"residue.string": "AGCCAGTGGCGATAAGGGTTCCTGCATATGTAGCTCGTATAACGGCTGGTCAGAGCCGTTCCAGCACTCTTGACAGGTGTATTGGCCTGGTCCAAGCTCCGGGTACTGGTCTACACCATTGGTCCAGGTCCCGGCTCCATGGGCGGGGGGTGTGGGCATCCCTGAGGAGGCTTATCGCCACTGGCT (double strand) [dasA promoter]", "val": "binds"}
{"residue.string": "AGCCAGTGGCGATAAGATGACATGTCTCACGGGGGACAGTGTGACCCCAGGACCCGCAAGAGGTCTAGTCCACTCACGTGGTGTAGACCTTAGGGCGGCAATATGTATGACCTTTCGAGAGTTTTTCGATCAGTGATCTTGAGGCGGTTGGCAGTGCGGCGGCGTAGGACTTATCGCCACTGGCT (double strand) [nagK promoter]", "val": "binds"}
